Data origin: a melting point compilation (Tetko et al.; mined from patent text by program, amines drawn as free bases though some values may be those of a salt)

assay endpoint: melting point

{"columns": ["compound", "assay endpoint", "value reported"],
 "data": [
  ["CCC1CCCCN1CCC(=O)N1c2ccccc2NC(=O)c2ccccc21 (stereo unspecified)", "melting point", "147 to 148 °C"],
  ["N#Cc1cc(C=C2SC(=S)NC2=O)cc(O)c1O", "melting point", "> 350 °C"],
  ["O=C(c1ccccc1)c1ccc(OCc2ccccc2)cc1S", "melting point", "122 to 123 °C"],
  ["OCCOc1ccc(C2CCc3ccccc3O2)cc1 (stereo unspecified)", "melting point", "84 to 85 °C"],
  ["O=C1C(=O)c2ccccc2C2=C1SCC1(CCCN(C(=O)c3cccc(Cl)c3)CC1)O2 (stereo unspecified)", "melting point", "98 to 100 °C"],
  ["CC1Cc2cccc(S(N)(=O)=O)c2S1(=O)=O (stereo unspecified)", "melting point", "167 to 169 °C"]
]}
